Data provenance is paper PMC6332036.

- target-or-system: PI3Kδ (Homo sapiens, UniProt O00329)
- Sequence (O00329 whole entry): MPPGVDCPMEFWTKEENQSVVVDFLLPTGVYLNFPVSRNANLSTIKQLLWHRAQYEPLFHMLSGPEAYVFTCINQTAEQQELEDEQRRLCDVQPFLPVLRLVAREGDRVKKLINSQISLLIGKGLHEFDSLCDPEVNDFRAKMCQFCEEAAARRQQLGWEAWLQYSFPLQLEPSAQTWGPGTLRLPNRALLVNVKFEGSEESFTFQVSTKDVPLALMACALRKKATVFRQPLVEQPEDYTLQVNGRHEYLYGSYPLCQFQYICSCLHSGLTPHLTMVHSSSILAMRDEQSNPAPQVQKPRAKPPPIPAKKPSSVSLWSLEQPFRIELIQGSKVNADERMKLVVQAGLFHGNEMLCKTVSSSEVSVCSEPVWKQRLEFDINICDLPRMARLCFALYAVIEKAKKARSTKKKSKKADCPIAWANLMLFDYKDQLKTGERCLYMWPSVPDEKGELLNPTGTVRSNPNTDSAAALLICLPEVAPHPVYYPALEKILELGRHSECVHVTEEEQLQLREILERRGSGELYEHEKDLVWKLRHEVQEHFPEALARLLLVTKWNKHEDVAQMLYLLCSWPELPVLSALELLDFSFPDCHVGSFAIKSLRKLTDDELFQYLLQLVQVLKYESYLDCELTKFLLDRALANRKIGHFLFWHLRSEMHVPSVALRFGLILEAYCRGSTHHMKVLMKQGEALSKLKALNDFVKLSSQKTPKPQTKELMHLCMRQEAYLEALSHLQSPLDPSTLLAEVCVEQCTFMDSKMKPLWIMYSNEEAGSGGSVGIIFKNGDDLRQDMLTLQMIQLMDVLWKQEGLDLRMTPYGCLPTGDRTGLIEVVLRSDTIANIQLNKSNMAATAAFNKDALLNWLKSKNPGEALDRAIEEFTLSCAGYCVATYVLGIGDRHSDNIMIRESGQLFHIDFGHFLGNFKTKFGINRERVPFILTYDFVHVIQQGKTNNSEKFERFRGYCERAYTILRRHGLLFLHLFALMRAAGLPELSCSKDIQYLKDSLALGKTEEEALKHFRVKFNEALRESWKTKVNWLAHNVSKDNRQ
- Sequence (P27986 whole entry partner): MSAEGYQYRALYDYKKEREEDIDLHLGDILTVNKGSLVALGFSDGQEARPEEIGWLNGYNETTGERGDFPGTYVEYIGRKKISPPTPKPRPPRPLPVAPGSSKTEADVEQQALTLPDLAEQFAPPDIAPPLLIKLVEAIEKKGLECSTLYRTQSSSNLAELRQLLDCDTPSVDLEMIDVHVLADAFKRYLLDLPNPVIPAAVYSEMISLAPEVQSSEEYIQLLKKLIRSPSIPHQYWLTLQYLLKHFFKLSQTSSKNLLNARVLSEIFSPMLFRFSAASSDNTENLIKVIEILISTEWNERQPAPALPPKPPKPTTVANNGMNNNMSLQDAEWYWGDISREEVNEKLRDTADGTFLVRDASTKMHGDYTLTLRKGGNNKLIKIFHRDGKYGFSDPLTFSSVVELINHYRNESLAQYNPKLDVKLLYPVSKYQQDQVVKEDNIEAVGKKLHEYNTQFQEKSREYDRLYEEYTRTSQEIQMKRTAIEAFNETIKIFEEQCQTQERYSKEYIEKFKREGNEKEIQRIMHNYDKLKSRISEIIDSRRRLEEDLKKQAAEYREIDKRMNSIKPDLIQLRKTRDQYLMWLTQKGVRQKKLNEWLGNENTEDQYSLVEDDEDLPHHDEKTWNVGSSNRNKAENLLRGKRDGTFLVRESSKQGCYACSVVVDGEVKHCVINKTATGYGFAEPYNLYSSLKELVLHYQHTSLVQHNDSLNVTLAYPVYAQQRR
- test-summary: ADP-Glo luminescent lipid kinase assay, PI3Kδ
- stated-conditions: recombinant enzyme 30 ng, 10 μM ATP, 30 min, room temperature; standard error (SE)
Rule: IC50 below 1000 nM gives MET, anything at or above gives NOT MET.

Take a look at these entries with their results.
{"molecule": "N#Cc1c(-c2ccc(Oc3ccccc3)cc2)cc(N2CCOCC2)nc1-c1cccc(O)c1 [Compound 9b]", "assigned-label": "NOT MET"}
{"molecule": "COc1ccc(-c2cc(N3CCOCC3)nc(-c3cccc(O)c3)c2C#N)cc1OC [Compound 9e]", "assigned-label": "MET"}
{"molecule": "COc1ccc(-c2cc(N3CCOCC3)nc(-c3cccc(O)c3)c2C#N)cc1 [Compound 9c]", "assigned-label": "NOT MET"}
{"molecule": "N#Cc1c(-c2ccccc2)cc(N2CCOCC2)nc1-c1cccc(O)c1 [Compound 9a]", "assigned-label": "NOT MET"}
{"molecule": "Cc1ccc(-c2cc(N3CCOCC3)nc(-c3cccc(O)c3)c2C#N)cc1C [Compound 9f]", "assigned-label": "NOT MET"}

Request: Does Cc1cc(N2CCOCC2)nc(-c2cccc(O)c2)c1C#N [Compound 10] have IC50 strictly under 1000 nM?
Response: MET

Request: Does N#Cc1c(-c2ccncc2)cc(N2CCOCC2)nc1-c1cccc(O)c1 [Compound 9g] have IC50 strictly under 1000 nM?
Response: MET

Request: Does COc1cccc(-c2cc(N3CCOCC3)nc(-c3cccc(O)c3)c2C#N)c1 [Compound 9d] have IC50 strictly under 1000 nM?
Response: NOT MET

Request: Does N#Cc1c(-c2cccnc2)cc(N2CCOCC2)nc1-c1cccc(O)c1 [Compound 9h] have IC50 strictly under 1000 nM?
Response: MET
